- Subject of test: T1, TACI, full length, on transiently transfected cells (human, UniProt O14836 1-293)
- T1 construct: whole, on cells; also called huTACI
- T1 sequence (looked up): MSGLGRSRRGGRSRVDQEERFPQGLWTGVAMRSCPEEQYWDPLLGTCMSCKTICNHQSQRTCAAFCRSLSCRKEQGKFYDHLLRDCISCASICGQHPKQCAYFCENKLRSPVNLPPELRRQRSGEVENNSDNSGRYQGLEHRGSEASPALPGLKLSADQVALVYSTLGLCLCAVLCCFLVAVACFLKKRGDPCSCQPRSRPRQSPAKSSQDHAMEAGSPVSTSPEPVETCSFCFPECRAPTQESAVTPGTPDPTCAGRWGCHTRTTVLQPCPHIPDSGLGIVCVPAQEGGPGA
- Experimental protocol: FACS
Criterion: MFI strictly under 1000. Met: condition met. Not met: condition not met.

| Binder | Class name |
| --- | --- |
| 33C7 (antibody, V domains shown, Tested as purified hybridoma IgG2 or IgG4; also called Ab-11; 33C7_HC#1) VH: EVQLLESGGALVQPGGSLRLSCAASGFTFSSYAMNWVRQAPGKGLEWVSAISVGGDTYYADSVKGRFTISRDNSKNTLYLHVNSLSAEDSAVYYCAKDQVTLVRGVWYYYGLDVWGQGTTVTVSS VL: VIVLIQSPLSLPVTPGEPASISCRSSQSLLHSNGNNYLDWYLQKPGQSPHLLISLGSNRTSGVPDRFSGSGSGTDFTLKISRVEAEDVGFYYCMQALQPPRRFGQGTKLEIKR | condition not met |
| 35D2 (antibody, V domains shown, also called Ab-15; 35D2.1) VH: EVQLLESGGALVQPGGSLRLSCAASGFTFSSYAMNWVRQAPGKGLEWVSAISVGGGTYYADSVKGRFTISRDNSKNTLYLHVNSLRAEDTAVYYCAKDQVTMVRGVWYYYGLDVWGQGTTVTVSS VL: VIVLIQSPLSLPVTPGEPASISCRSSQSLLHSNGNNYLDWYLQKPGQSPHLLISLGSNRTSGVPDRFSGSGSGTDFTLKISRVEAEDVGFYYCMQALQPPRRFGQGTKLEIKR | condition met |
| 37B2 (antibody, V domains shown, Tested as purified hybridoma IgG2 or IgG4; also called Ab-16; 37B2.1) VH: EVQLLESGGALVQPGGSLRLSCAASGFTFSNYAMNWVRQAPGKGLEWVSAISVGGDTYYADSVKGRFTISRDNSKNTLYLHVNSLSAEDSAVYYCAKDQVTLVRGVWYYYGLDVWGQGTTVTVSS VL: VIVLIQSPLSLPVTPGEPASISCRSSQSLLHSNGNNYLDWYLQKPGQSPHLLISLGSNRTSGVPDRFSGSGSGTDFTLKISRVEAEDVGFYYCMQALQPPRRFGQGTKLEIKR | condition not met |
| 32B5 (antibody, V domains shown, 32B5.1 was purified hybridoma IgG2 or IgG4; later converted to human IgG1; also called Ab-10; 32B5.1) VH: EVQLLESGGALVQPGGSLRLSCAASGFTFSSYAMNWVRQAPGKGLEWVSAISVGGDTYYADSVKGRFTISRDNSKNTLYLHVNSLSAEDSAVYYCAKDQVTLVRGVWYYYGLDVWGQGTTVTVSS VL: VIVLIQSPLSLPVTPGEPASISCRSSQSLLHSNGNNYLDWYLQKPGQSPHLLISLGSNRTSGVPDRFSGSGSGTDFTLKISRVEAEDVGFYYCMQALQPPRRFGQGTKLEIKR | condition met |
| 29C12 (antibody, V domains shown, also called Ab-8; 29C12.1) VH: EVQLLESGGALVQPGGSLRLSCAASGFTFSSYAMNWVRQAPGKGLEWVSAISVGGDTYYADSVKGRFTISRDNSKNTLYLQMNSLRAEDTAVYYCAKDQVTMVRGVWYYYGLDVWGQGTTVTVSS VL: DIVMIQSPLSLPVTPGEPASISCRSSQSLLHSNGNNYLDWYLQKPGQSPHLLISLGSNRTSGVPDRFSGSGSGTDFTLKISRVEAEDVGVYYCMQALQPPRRFGQGTKLEIKR | condition met |
